For each entry below, report its IC50 value.
- EXPERIMENTAL SYSTEM: hNAMPT protein (Homo sapiens (Human), UniProt P43490)
- Sequence (P43490 whole entry): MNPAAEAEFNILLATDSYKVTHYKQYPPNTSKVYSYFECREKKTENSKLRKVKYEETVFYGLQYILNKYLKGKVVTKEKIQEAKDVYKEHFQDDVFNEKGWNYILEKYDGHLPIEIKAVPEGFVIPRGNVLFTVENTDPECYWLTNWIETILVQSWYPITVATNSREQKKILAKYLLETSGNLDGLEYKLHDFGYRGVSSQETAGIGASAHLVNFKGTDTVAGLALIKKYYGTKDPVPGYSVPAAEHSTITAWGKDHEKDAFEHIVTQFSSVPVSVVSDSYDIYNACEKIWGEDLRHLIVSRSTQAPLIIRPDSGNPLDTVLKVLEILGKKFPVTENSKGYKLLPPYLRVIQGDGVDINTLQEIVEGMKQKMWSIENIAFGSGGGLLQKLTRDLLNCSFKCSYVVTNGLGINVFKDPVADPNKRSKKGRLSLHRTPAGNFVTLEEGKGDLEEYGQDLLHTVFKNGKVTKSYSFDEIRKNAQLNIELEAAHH
- ASSAY SUMMARY: NAMPT enzyme assay (TR-FRET/HTRF, BodiPY ligand, anti 6His-Tb)
- Type: binding
- REPORTED CONDITIONS: NAMPT IC50 range class; read-out: IC50

Worked set:
[
  {
    "MOLECULE": "O=C(NCCc1nccs1)c1ccc2nc(-c3ccc(F)cc3)c(-c3ccc(F)cc3)nc2c1",
    "IC50": "100 to 500 nM"
  },
  {
    "MOLECULE": "O=C(NCCCc1ncc[nH]1)c1ccc2nc(N3CCCCC3)c(-c3cccs3)nc2c1",
    "IC50": "< 100 nM"
  },
  {
    "MOLECULE": "CC(=O)N1CCN(c2nc3ccc(C(=O)NCCCn4ccnc4)cc3nc2-c2ccccc2)CC1",
    "IC50": "100 to 500 nM"
  }
]

Dear colleague, could you send me IC50 for each of the items below? Thanks.
1. O=C(NCCCn1ccnc1)c1ccc2nc(NCc3ccccc3)c(-c3ccccc3)nc2c1
2. O=C(NCCCc1ncc[nH]1)c1ccc2nc(OCC3CC4(COC4)C3)c(-c3ccc(F)cc3)nc2c1
3. CS(=O)(=O)C1CCN(c2nc3ccc(C(=O)NCCCn4ccnc4)cc3nc2-c2ccccc2)C1 (stereo not shown)
4. COc1cccc(-c2nc3ccc(C(=O)NCCCn4ccnc4)cc3nc2-c2ccccc2)c1

["2000 to 10000 nM", "< 100 nM", "100 to 500 nM", "100 to 500 nM"]
